Quick reference: agonistic activity (EC50 value: pM) in BaF3-human Mpl, cell proliferation (WST-8) of the listed items.
tested-target: full-length human Mp1 expressed on BaF3 cells (human) (UniProt P40238)
assay-details: cell-based or functional assay
Write the value in pM as a bare number.

>  <binder>
VB45B diabody (scFv, V domains shown, part only, (Gly4Ser)1 linker; C-terminal FLAG tag) VH: QVQLQQSGPELVKPGASVKISCKASGYAFSSSWMNWVKQRPGKGLEWIGRIYPGDGETNNNGKFKGKATLTADKSSTTAYMQLSSLTSEDSAVYFCARGYGDYSFAYWGQGTLVTVSA VL: DIVMTQAAPSVPVTPGESVSISCRSSKSLLHSNGNTYLYWFLQRPGQSPQLLIYRMSNLASGVPDRFSGSGSGAAFTLRISRVEAEDVGVYYCMQHLEYPYTFGSGTKLEIK

>  <readout-value>
76

$$$$

The reported agonistic activity (EC50 value: pM) in BaF3-human Mpl, cell proliferation (WST-8) of the binder TA136 diabody (scFv, V domains shown, part only, (Gly4Ser)1 linker; C-terminal FLAG tag) VH: DVQLQESGPGLVKPSQSLSLTCTVTGYSITSDYAWSWIRQLPGNKLEWMGYITYSGYSIYNPSLKSRISISRDTSKNQLFLQLNSVTTEDTATYYCVGGYDNMDYWGQGTSVTVSS VL: QIVLTQSPAIMSASPGEKVTLTCSASSSVSSSHLYWYQQKPGSSPKLWIYSTSNLASGVPARFSGSGSGTSYSLTISNMETEDAASYFCHQWSSYPWTFGGGTKLEIK was 3080

Entry VB140 diabody (scFv, V domains shown, part only, (Gly4Ser)1 linker; C-terminal FLAG tag) VH: QVQLQQSGPELVKPGASVKISCRAFGYAFSNSWMNWVKQRPGKGLEWIGRIYPGDGETNNNGKFKGKATLTADKSSSTAYMQLSSLTSEDSAVYFCARGYGDYSFAYWGQGTLVTVSA VL: DIVMTQAAPSVPVTPGESVSISCRSSKSLLHSNGNTYLYWFLQRPGQSPQLLIYRMSNLASGVPDRFSGSGSGAAFTLRISRVEAEDVGVYYCMQHLEYPYTFGSGTKLEIK , agonistic activity (EC50 value: pM) in BaF3-human Mpl, cell proliferation (WST-8) reported as 89

The value of agonistic activity (EC50 value: pM) in BaF3-human Mpl, cell proliferation (WST-8) measured for the binder VB16 diabody (scFv, V domains shown, part only, (Gly4Ser)1 linker; C-terminal FLAG tag) VH: QVQLQQPGTELVRPGASVKLSCKASGYTFTDYWVNWVKQRPGRGLEWIGRIHPYDSETHYNQKFKNKATLTVDKSSSTAYIQLSSLTSEDSAVYYCASGGWFASWGQGTLVTVSA VL: DIVMTQAAPSVPVTPGESVSISCRSSKSLLYSNGNTYLYWFLQRPGQSPQLLIYRMSNLASGVPDRFSGSGSGTAFTLTISSVEAEDVGVYYCMQHLEYPYTFGSGTKLEIK turned out to be 190
